Property: kcat/Km; scope: individual proteins
Substrate: O=C(O)c1cc(C(=O)O)oc(=O)c1
TEST_DESCRIPTION: purified protein
Type: biochemical, Sphingobium sp. SYK-6
APPLIED_CONDITIONS: 50 mM BICINE pH 8.25, 30 °C
ENDPOINT_NAME: kcat/Km (M⁻¹ s⁻¹)

INSERT INTO measurements (protein, endpoint_name, observed_result) VALUES
  ('LigI (Sphingobium sp. SYK-6; D246N) (protein) TNDERILSWNETPSKPRYTPPPGAIDAHCHVFGPMAQFPFSPKAKYLPRDAGPDMLFALRDHLGFARNVIVQASCHGTDNAATLDAIARAQGKARGIAVVDPAIDEAELAALHEGGMRGIRFNFLKRLVDDAPKDKFLEVAGRLPAGWHVVIYFEADILEELRPFMDAIPVPIVIDHMGRPDVRQGPDGADMKAFRRLLDSREDIWFKATCPDRLDPAGPPWDDFARSVAPLVADYADRVIWGTNWPHPNMQDAIPDDGLVVDMIPRIAPTPELQHKMLVTNPMRLYWSEEM', 'kcat/Km', 200),
  ('LigI (Sphingobium sp. SYK-6; R122M) (protein) TNDERILSWNETPSKPRYTPPPGAIDAHCHVFGPMAQFPFSPKAKYLPRDAGPDMLFALRDHLGFARNVIVQASCHGTDNAATLDAIARAQGKARGIAVVDPAIDEAELAALHEGGMRGIMFNFLKRLVDDAPKDKFLEVAGRLPAGWHVVIYFEADILEELRPFMDAIPVPIVIDHMGRPDVRQGPDGADMKAFRRLLDSREDIWFKATCPDRLDPAGPPWDDFARSVAPLVADYADRVIWGTDWPHPNMQDAIPDDGLVVDMIPRIAPTPELQHKMLVTNPMRLYWSEEM', 'kcat/Km', 200);

These data points were gathered from paper PMC3416963.
